# Assay remarks: Cytotoxicity against human BT549 cells at 10 uM after 48 hrs by SRB assay
# Format: functional
# Condition description: BT-549, 48 h, read-out: GI
Class assignment keyed on inhibition of growth at 10 µM, ranges bucket 1 (below 9%), bucket 2 (9% to below 30%), bucket 3 (30% or more)

Cc1nc2ccc(Nc3nc(Cl)nc(Nc4ccc(F)cc4)n3)cc2n1Cc1ccccc1: bucket 3
Cc1nc2ccc(Nc3nc(NCCN)nc(Nc4ccc(F)cc4)n3)cc2n1Cc1ccccc1: bucket 2
Cc1nc2cc(Nc3nc(Nc4ccc(F)cc4)nc(-c4ccccc4)n3)ccc2n1Cc1ccccc1: bucket 1
Cc1nc2ccc(Nc3nc(Nc4ccc(F)cc4)nc(N4CCCCC4)n3)cc2n1Cc1ccccc1: bucket 1
Cc1nc2cc(Nc3nc(NCCN)nc(Nc4ccc(F)cc4)n3)ccc2n1Cc1ccccc1: bucket 2
Cc1nc2ccc(Nc3nc(NCCO)nc(Nc4ccc(F)cc4)n3)cc2n1Cc1ccccc1: bucket 2

Lab note: which band did Cc1nc2ccc(Nc3nc(NCCN4CCOCC4)nc(Nc4ccc(F)cc4)n3)cc2n1Cc1ccccc1 land in? bucket 3

Note, next up: Cc1nc2cc(Nc3nc(Cl)nc(Nc4ccc(F)cc4)n3)ccc2n1Cc1ccccc1 bucket 2

Note, next up: Cc1nc2cc(Nc3nc(Nc4ccc(F)cc4)nc(Nc4ccc(F)cc4)n3)ccc2n1Cc1ccccc1 bucket 1

---

# Assay remarks: Cytotoxicity against human SF539 cells at 10 uM after 48 hrs by SRB assay
# Format: functional
# Condition description: SF-539, 48 h, read-out: GI
Assay readout: inhibition of growth at 10 µM (%)
// note: answer is a bare numeric in %

Examples from the recorded data:
Cc1nc2ccc(Nc3nc(NCCO)nc(Nc4ccc(F)cc4)n3)cc2n1Cc1ccccc1: 3.59
Cc1nc2ccc(Nc3nc(Cl)nc(Nc4ccc(F)cc4)n3)cc2n1Cc1ccccc1: 1.83

Would you kindly share the measured inhibition of growth at 10 µM for Cc1nc2cc(Nc3nc(Cl)nc(Nc4ccc(F)cc4)n3)ccc2n1Cc1ccccc1 ? 29.8

Note, next up: Cc1nc2cc(Nc3nc(NCCO)nc(Nc4ccc(F)cc4)n3)ccc2n1Cc1ccccc1 5.61

Note, next up: Cc1nc2cc(Nc3nc(NCCN)nc(Nc4ccc(F)cc4)n3)ccc2n1Cc1ccccc1 3.98

---

# Tested on: MCF7
# Assay remarks: Cytotoxicity against human MCF7 cells after 48 hrs by SRB assay
# Assay type: functional
# Condition description: MCF7, 48 h, pooled result: one value given for 6 cell lines, strains, targets or settings
Assay readout: GI50 (µM)
// note: answer is a bare numeric in µM

What reported GI50 corresponds to COc1ccc(-c2nc(Nc3ccc(F)cc3)nc(Nc3ccc4c(c3)nc(C)n4Cc3ccccc3)n2)cc1 on MCF7? 3.6

Note, next up: Cc1nc2cc(Nc3nc(Nc4ccc(F)cc4)nc(N4CCN(C)CC4)n3)ccc2n1Cc1ccccc1 1.61

Note, next up: Cc1nc2cc(Nc3nc(Nc4ccc(F)cc4)nc(N4CCCC4)n3)ccc2n1Cc1ccccc1 1.98

---

# System: MDA-MB-231
# Assay remarks: Cytotoxicity against human MDA-MB-231 cells at 10 uM after 48 hrs by SRB assay
# Type: functional
# Condition description: MDA-MB-231, 48 h, read-out: GI
If the reported inhibition of growth at 10 µM equals or exceeds 20%, assign 1 (yes). If not, assign 0 (no).

Please tell me: is the compound Cc1nc2cc(Nc3nc(Nc4ccc(F)cc4)nc(-c4cccs4)n3)ccc2n1Cc1ccccc1 at or over 20% in terms of inhibition of growth at 10 µM? 1 (yes)

Note, next up: Cc1nc2cc(Nc3nc(Cl)nc(Nc4ccc(F)cc4)n3)ccc2n1Cc1ccccc1 0 (no)

Note, next up: Cc1nc2cc(Nc3nc(Nc4ccc(F)cc4)nc(Nc4ncccn4)n3)ccc2n1Cc1ccccc1 0 (no)

Note, next up: Cc1nc2cc(Nc3nc(Nc4ccc(F)cc4)nc(-c4ccc(Cl)cc4)n3)ccc2n1Cc1ccccc1 1 (yes)

Note, next up: Cc1nc2cc(Nc3nc(Nc4ccc(F)cc4)nc(-c4ccccc4)n3)ccc2n1Cc1ccccc1 0 (no)

---

# Tested on: HT-29
# Assay remarks: Cytotoxicity against human HT-29 cells at 10 uM after 48 hrs by SRB assay
# Assay type: functional
# Condition description: HT-29, 48 h, read-out: GI
Assay readout: inhibition of growth at 10 µM

Examples from the recorded data:
Cc1nc2cc(Nc3nc(Nc4ccc(O)cc4)nc(Nc4ccc(F)cc4)n3)ccc2n1Cc1ccccc1: 4.8%
Cc1nc2ccc(Nc3nc(Nc4ccc(F)cc4)nc(N4CCCCC4)n3)cc2n1Cc1ccccc1: 28.9%
Cc1nc2ccc(Nc3nc(NCCN)nc(Nc4ccc(F)cc4)n3)cc2n1Cc1ccccc1: 55.5%
Cc1nc2cc(Nc3nc(NCCO)nc(Nc4ccc(F)cc4)n3)ccc2n1Cc1ccccc1: 28.1%

// next item, inhibition of growth at 10 µM requested
What reported inhibition of growth at 10 µM corresponds to Cc1nc2cc(Nc3nc(Cl)nc(Nc4ccc(F)cc4)n3)ccc2n1Cc1ccccc1 on HT-29? 5.46%

---

# Tested on: HT-29
# Assay remarks: Cytotoxicity against human HT-29 cells at 10 uM after 48 hrs by SRB assay
# Format: functional
# Condition description: HT-29, 48 h, read-out: GI
Assay readout: inhibition of growth at 10 µM (%)
// note: answer is a bare numeric in %

Examples from the recorded data:
Cc1nc2ccc(Nc3nc(Cl)nc(Nc4ccc(F)cc4)n3)cc2n1Cc1ccccc1: 15.8
Cc1nc2cc(Nc3nc(Nc4ccc(F)cc4)nc(-c4cccs4)n3)ccc2n1Cc1ccccc1: 79.5
Cc1nc2cc(Nc3nc(Nc4ccc(F)cc4)nc(Nc4ccc(F)cc4)n3)ccc2n1Cc1ccccc1: 1.3

Would you kindly share the measured inhibition of growth at 10 µM for Cc1nc2cc(Nc3nc(Nc4ccc(F)cc4)nc(-c4ccccc4)n3)ccc2n1Cc1ccccc1 ? 40.6

Note, next up: COc1ccc(-c2nc(Nc3ccc(F)cc3)nc(Nc3ccc4c(c3)nc(C)n4Cc3ccccc3)n2)cc1 91.1

---

# Assay remarks: Cytotoxicity against human OVCAR5 cells at 10 uM after 48 hrs by SRB assay
# Type: functional
# Condition description: OVCAR-5, 48 h, read-out: GI
Assay readout: inhibition of growth at 10 µM (%)
// note: answer is a bare numeric in %

Would you kindly share the measured inhibition of growth at 10 µM for Cc1nc2cc(Nc3nc(Cl)nc(Nc4ccc(F)cc4)n3)ccc2n1Cc1ccccc1 ? 3.73

Note, next up: Cc1nc2cc(Nc3nc(Nc4ccc(F)cc4)nc(-c4ccc(Cl)cc4)n3)ccc2n1Cc1ccccc1 7.71

Note, next up: Cc1nc2cc(Nc3nc(Nc4ccc(F)cc4)nc(-c4cccs4)n3)ccc2n1Cc1ccccc1 7.98

Note, next up: Cc1nc2ccc(Nc3nc(NCCN)nc(Nc4ccc(F)cc4)n3)cc2n1Cc1ccccc1 6.17

Note, next up: Cc1nc2cc(Nc3nc(Nc4ccc(F)cc4)nc(N4CCN(C)CC4)n3)ccc2n1Cc1ccccc1 57.1

Note, next up: Cc1nc2ccc(Nc3nc(NCCN4CCOCC4)nc(Nc4ccc(F)cc4)n3)cc2n1Cc1ccccc1 15.9

Note, next up: Cc1nc2cc(Nc3nc(Nc4ccc(F)cc4)nc(Nc4ccc(F)cc4)n3)ccc2n1Cc1ccccc1 4.24

Note, next up: Cc1nc2cc(Nc3nc(Nc4ccc(O)cc4)nc(Nc4ccc(F)cc4)n3)ccc2n1Cc1ccccc1 3.66

Note, next up: COc1ccc(-c2nc(Nc3ccc(F)cc3)nc(Nc3ccc4c(c3)nc(C)n4Cc3ccccc3)n2)cc1 11.9

---

# Assay remarks: Cytotoxicity against human IGROV1 cells at 10 uM after 48 hrs by SRB assay
# Format: functional
# Condition description: IGROV-1, 48 h, read-out: GI
Assay readout: inhibition of growth at 10 µM

Cc1nc2cc(Nc3nc(Nc4ccc(F)cc4)nc(N4CCN(C)CC4)n3)ccc2n1Cc1ccccc1: 75.4%
Cc1nc2cc(Nc3nc(Nc4ccc(F)cc4)nc(-c4cccs4)n3)ccc2n1Cc1ccccc1: 51.7%
Cc1nc2ccc(Nc3nc(NCCN4CCOCC4)nc(Nc4ccc(F)cc4)n3)cc2n1Cc1ccccc1: 31%
Cc1nc2cc(Nc3nc(Nc4ccc(F)cc4)nc(Nc4ncccn4)n3)ccc2n1Cc1ccccc1: 24%

// next item, inhibition of growth at 10 µM requested
Would you kindly share the measured inhibition of growth at 10 µM for Cc1nc2cc(Nc3nc(NCCN)nc(Nc4ccc(F)cc4)n3)ccc2n1Cc1ccccc1 ? 18.6%

---

# Tested on: SR
# Assay remarks: Cytotoxicity against human SR cells after 48 hrs by SRB assay
# Assay type: functional
LC50 (concentration killing 50% of cells) listing for selected compounds.

Examples from the recorded data:
Cc1nc2ccc(Nc3nc(Cl)nc(Nc4ccc(F)cc4)n3)cc2n1Cc1ccccc1: > 100 µM
Cc1nc2cc(Nc3nc(Nc4ccc(F)cc4)nc(-c4ccc(Cl)cc4)n3)ccc2n1Cc1ccccc1: > 100 µM
Cc1nc2ccc(Nc3nc(NCCN4CCOCC4)nc(Nc4ccc(F)cc4)n3)cc2n1Cc1ccccc1: 55 µM
COc1ccc(-c2nc(Nc3ccc(F)cc3)nc(Nc3ccc4c(c3)nc(C)n4Cc3ccccc3)n2)cc1: > 100 µM
Cc1nc2cc(Nc3nc(Nc4ccc(F)cc4)nc(-c4cccs4)n3)ccc2n1Cc1ccccc1: > 100 µM

What reported LC50 (concentration killing 50% of cells) corresponds to Cc1nc2cc(Nc3nc(Nc4ccc(F)cc4)nc(N4CCN(C)CC4)n3)ccc2n1Cc1ccccc1 on SR? 8.47 µM

Note, next up: Cc1nc2cc(Nc3nc(Nc4ccc(F)cc4)nc(N4CCCC4)n3)ccc2n1Cc1ccccc1 > 100 µM
